Reference source for all entries: ChEMBL document CHEMBL1201862

- Tested on: DMS-273
- experiment: NCI tumour cell line growth inhibition, 48 h
Active and inactive are the calls of the source. No stated cut-off is given here; in the data, active = GI50 up to about 1.1 µM and inactive = higher.
readout type: GI50

Some solved entries appear below for comparison.
* CC1C=C(CCCCCCCCCCCC[C@@H](O)[C@@H]2CC[C@@H]([C@@H]3CC[C@@H](C(O)CCCCCCCCCCCCC4=C[C@H](C)OC4=O)O3)O2)C(=O)O1 (stereo not given in full) | > 41 µM (inactive)
* O=C(O)C(CS)NCc1c2ccccc2nc2ccccc12 (stereo not given) | 27 µM (inactive)
* CN(C)/C=N/c1nc2ncn(CCOC(=O)c3ccccc3)c2c(=O)[nH]1 | > 100 µM (inactive)
* COc1ccc2nc3cc(Cl)ccc3c(Sc3ccc(NC(C)=O)cc3)c2c1 | 8.09 µM (inactive)
* CC1CC[C@]2(C(=O)O)CCC3(COC(=O)/C=C\c4ccc(O)cc4)C(=CCC4[C@@]5(C)CC[C@H](O)C(C)(C)C5CC[C@]43C)[C@@H]2[C@H]1C (stereo not given in full) | 20.3 µM (inactive)

Turning to the following compound.
Record CN1C(=O)CC(CC(=O)C2CCCCC2=O)CC1=O (stereo not given) , field GI50: > 100 µM (inactive)

====

- System: SNB-75
- experiment: NCI tumour cell line growth inhibition, 48 h
Activity calls are given as the source filed them. No stated cut-off is given here; in the data, active = GI50 up to about 1.1 µM and inactive = higher.
Parameter: GI50. Scope: all listed entries.

The compound listed as CCOC(=O)C12OC(OCC)(CC1(OCC)OCC)C1(CC1)C2=O (stereo not given) shows GI50 equal to > 100 µM (inactive)

Lab note: O=C(Nc1ccccc1)c1cc(S(=O)(=O)n2ccnc2O)c(S)cc1Cl gave GI50 of 28.8 µM (inactive)

====

- System: OVCAR-8
- experiment: NCI tumour cell line growth inhibition, 48 h
Activity calls are given as the source filed them. Cut-off read from the data, not from the text of the source: active = GI50 up to about 1.1 µM and inactive = higher.
// reported GI50 for each item listed

Look over these answered cases.
- COc1ccc2c(c1)OCC1Cc3cc4c(cc3OC21)OCO4 (stereo unspecified): 45 µM (inactive)
- O=S(=O)(/C=C/c1ccc(F)cc1)Cc1ccc(CS(=O)(=O)/C=C/c2ccc(F)cc2)cc1: > 100 µM (inactive)
- C[C@H]1SC(c2ccc(Cl)cc2Cl)N(NC(=O)c2ccncc2)C1=O (stereo partly specified): 49.9 µM (inactive)
- Nc1ncnc2c1ncn2CCCNO: > 100 µM (inactive)
- Cc1ccc(NC(=O)CC2SC(=N)NC2=O)cc1C (stereo unspecified): > 100 µM (inactive)

So, N[C@@H](CCC(=O)NC(Cc1ccccc1)C(=O)NCP(=O)(O)O)C(=O)O (stereo partly specified) ? Its GI50 was > 100 µM (inactive)

====

- Test system: SW-620
- experiment: NCI tumour cell line growth inhibition, 48 h
Where a name gives a salt, the structure may show the parent alone. Active and inactive are the calls of the source. Cut-off read from the data, not from the text of the source: active = GI50 up to about 1.1 µM and inactive = higher.
The reply should name one outcome from 1 for active, -1 for inactive

• NC(=O)SCC(=O)Nc1ccc2cccc3c2c1CC3 = -1
• N=C(N)n1ncc(Cl)c(Cl)c1=O = -1
• COc1ccc2ccccc2c1C1=NC(C)(C)CO1 = -1
• COC(=O)c1cc(NC(=O)c2cc(NC(=O)c3cc([N+](=O)[O-])cn3C)cn2C)cn1C = -1
• CCOC(=O)Cc1ccc(Nc2nc3cc(C(F)(F)F)ccc3nc2C(=O)OCC)cc1 = -1
• CC1=C(C(=O)OC2CC3CCC2(C)C3(C)C)C2Nc3ccccc3N(C)C2O1 (stereo not given) = -1
• C=CC[C@H](N=C(SC)SC)C(=O)N1C(=O)N(C)[C@@H](C)[C@H]1c1ccccc1 = -1
• Oc1ccc(Cl)cc1Cc1cc(Cl)cc(Cc2cc(Cl)ccc2O)c1O = -1
• C=C1C(=O)O[C@@H]2C[C@@H](C)[C@@H]3C=CC(=O)[C@@]3(C)[C@@H](OC(=O)CC(=O)O[C@H]3[C@@H]4C(=C)C(=O)O[C@@H]4C[C@@H](C)[C@@H]4C=CC(=O)[C@]43C)[C@H]12 = 1
• [N-]=[N+]=Nc1c(Br)c(=O)[nH]c(=O)n1COCCO = -1

// query Please state the recorded outcome for this compound: CC12CCC3=C(CSC4=C3CSc3ccccc34)C1=CCCC2=O (stereo not given)
// result -1

// query Please let me know the test result on file for CC(=O)C(CN(Cc1ccccc1)Cc1ccccc1)C(c1ccccc1)c1c(O)c2ccccc2oc1=O (stereo not given) .
// result -1

// query For CCOC(=O)NC(Nc1ccc(S(=O)(=O)Nc2ccc(OC)nn2)cc1)(C(F)(F)F)C(F)(F)F , what call appears in the results of this test?
// result -1

// query Test call, this compound: C=C1[C@@H](OC(C)=O)/C=C/C2C3C(=O)[C@@](C)(OC(C)=O)[C@H]([C@H](OC(C)=O)[C@]4(O)[C@@H](C)C(=O)O[C@H]4[C@H]1Cl)[C@@]23C (stereo not given in full)
// result -1

// query Name the outcome recorded for Nc1nc(O)nc2sc3c(c12)CCCC3 in the assay.
// result -1

// query GET /call?item= c1ccc([C@H]2CN3CCSC3=N2)cc1 [LEVAMISOLE HYDROCHLORIDE] returns the recorded outcome of this test.
// result -1

// query Short answer needed: outcome of this test for O=C(c1ccco1)N(Cc1cccnc1)C(=S)N(Cc1cccnc1)C(=O)c1ccco1 ?
// result -1

// query Hi, sorry to bother you, what did the test record for COc1ccc2[nH]c3c(C)cc([N+](=O)[O-])c(C)c3c2c1 ?
// result -1

// query # fetch the recorded call for COc1ccccc1NC(=O)C1=C(C)NC(C)=C(C(=O)Nc2ccccc2OC)C1c1ccccc1OC here
// result -1

// query Field: outcome | Entry: COc1ccc2nc3cc(Cl)ccc3c(Sc3ccc(NC(C)=O)cc3)c2c1
// result -1
